Biological target: human Siglec-2/CD22 protein (Homo sapiens, UniProt P20273)
Sequence (P20273 20-847): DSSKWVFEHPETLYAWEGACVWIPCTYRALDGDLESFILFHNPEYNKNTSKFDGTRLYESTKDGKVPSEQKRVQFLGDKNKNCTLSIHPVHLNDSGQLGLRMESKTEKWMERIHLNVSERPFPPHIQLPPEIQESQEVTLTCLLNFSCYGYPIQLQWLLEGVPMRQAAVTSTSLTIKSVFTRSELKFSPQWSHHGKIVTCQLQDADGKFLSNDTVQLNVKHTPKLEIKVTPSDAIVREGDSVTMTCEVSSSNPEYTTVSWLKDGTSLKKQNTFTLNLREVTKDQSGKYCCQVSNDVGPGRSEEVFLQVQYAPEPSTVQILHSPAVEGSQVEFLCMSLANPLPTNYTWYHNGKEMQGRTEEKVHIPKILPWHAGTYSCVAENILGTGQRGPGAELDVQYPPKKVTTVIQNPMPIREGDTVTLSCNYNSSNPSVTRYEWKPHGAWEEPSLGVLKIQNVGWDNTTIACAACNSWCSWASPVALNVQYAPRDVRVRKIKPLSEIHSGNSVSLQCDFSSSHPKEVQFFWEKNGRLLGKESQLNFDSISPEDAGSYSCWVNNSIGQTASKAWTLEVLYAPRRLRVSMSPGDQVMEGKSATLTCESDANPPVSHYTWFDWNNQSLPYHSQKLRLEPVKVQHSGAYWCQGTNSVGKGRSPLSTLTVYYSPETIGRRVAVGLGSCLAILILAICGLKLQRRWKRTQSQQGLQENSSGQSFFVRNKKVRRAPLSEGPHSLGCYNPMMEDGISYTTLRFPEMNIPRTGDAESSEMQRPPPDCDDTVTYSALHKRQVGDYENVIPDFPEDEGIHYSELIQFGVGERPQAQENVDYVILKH
Assay: SPR binding affinity to human CD22
Conditions: steady-state analysis
This section presents compounds with their documented Kd values.
MEASURED_METRIC: Kd

- C#CCOc1cccc(-c2cn([C@]3(C(=O)O)C[C@H](O)[C@@H](NC(=O)CO)[C@H]([C@H](O)[C@H](O)CNC(=O)Cc4ccc(-c5ccc(O)cc5)cc4)O3)nn2)c1 [Compound 60]: 1000 to 10000 nM
- CC(=O)NCCOCCOCCOCCOCCNC(=O)CCCCCO[C@]1(C(=O)O)C[C@H](O)[C@@H](NC(=O)CO)[C@H]([C@H](O)[C@H](O)CNC(=O)Cc2ccc(Cl)cc2)O1 [Compound 228]: 1000 to 10000 nM
- CC(=O)NCCOCCOCCOCCOCCC(=O)NCCCCCO[C@]1(C(=O)O)C[C@H](O)[C@@H](NC(C)=O)[C@H]([C@H](O)[C@H](O)CNC(=O)Cc2ccc(Cl)cc2)O1 [Compound 249]: 1000 to 10000 nM
- C#CCOCCOCCNc1c(NCCCCCCO[C@]2(C(=O)O)C[C@H](O)[C@@H](NC(=O)CO)[C@H]([C@H](O)[C@H](O)CNC(=O)c3cccc(C(F)F)c3)O2)c(=O)c1=O [Compound 233]: 1000 to 10000 nM
- C#CCOCCOCCO[C@]1(C(=O)O)C[C@H](O)[C@@H](NC(=O)C(F)F)[C@H]([C@H](O)[C@H](O)CNC(=O)Cc2ccc(-c3ccc(O)cc3)cc2)O1 [Compound 76]: < 1000 nM
